Test: Plasma protein binding
Settings: plasma
endpoint: fraction unbound

INSERT INTO measurements (molecule, endpoint, observed_measurement) VALUES
  ('CNC(=O)c1ccc(N2C(=S)N(c3cnc(C#N)c(C(F)(F)F)c3)C(=O)C23CCC3)cc1F [apalutamide]', 'fraction unbound', 0.04);

----------
Molecular target: human cytochrome P450 isoform CYP2C8 (Homo sapiens)
Sequence (P10632 1-490): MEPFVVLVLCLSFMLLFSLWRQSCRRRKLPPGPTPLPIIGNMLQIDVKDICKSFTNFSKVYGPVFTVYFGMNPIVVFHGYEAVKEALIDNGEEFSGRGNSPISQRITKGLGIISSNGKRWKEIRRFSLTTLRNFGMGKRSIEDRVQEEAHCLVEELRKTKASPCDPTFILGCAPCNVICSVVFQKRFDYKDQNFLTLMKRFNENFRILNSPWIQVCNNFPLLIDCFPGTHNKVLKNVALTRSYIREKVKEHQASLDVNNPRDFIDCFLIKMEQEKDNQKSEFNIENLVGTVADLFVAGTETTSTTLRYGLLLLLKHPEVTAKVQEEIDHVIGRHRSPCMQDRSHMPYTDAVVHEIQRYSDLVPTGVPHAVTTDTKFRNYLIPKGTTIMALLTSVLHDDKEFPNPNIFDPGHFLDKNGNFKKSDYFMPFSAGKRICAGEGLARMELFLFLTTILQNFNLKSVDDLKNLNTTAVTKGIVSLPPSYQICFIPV
Assay: Cytochrome P450 inhibition: CYP2C8
endpoint: IC50 (µM)

INSERT INTO assay_data (molecule, assay_system, observed_measurement) VALUES
  ('CNC(=O)c1ccc(N2C(=S)N(c3cnc(C#N)c(C(F)(F)F)c3)C(=O)C23CCC3)cc1F [apalutamide]', 'human cytochrome P450 isoform CYP2C8 (Homo sapiens)', 13.9);

----------
Test: in vivo
Conditions: male, Beagle, dog, 10 mg/kg/day
endpoint: AUC(0-t) (µg·h/mL)

INSERT INTO assay_data (compound, endpoint, observed_measurement) VALUES
  ('CNC(=O)c1ccc(N2C(=S)N(c3cnc(C#N)c(C(F)(F)F)c3)C(=O)C23CCC3)cc1F [apalutamide]', 'AUC(0-t)', 290);

----------
Test: Clinical pharmacokinetics (population PK analysis)
Details: human, plasma, po
endpoint: Tmax (h)

INSERT INTO measurements (compound, endpoint, observed_measurement) VALUES
  ('CNC(=O)c1ccc(N2C(=S)N(c3cnc(C#N)c(C(F)(F)F)c3)C(=O)C23CCC3)cc1F [apalutamide]', 'Tmax', 2);

----------
Assay: in vivo
Conditions: male, Beagle, dog
endpoint: NOAEL at 13 weeks (mg/kg/day)

INSERT INTO measurements (compound, observed_measurement) VALUES
  ('CNC(=O)c1ccc(N2C(=S)N(c3cnc(C#N)c(C(F)(F)F)c3)C(=O)C23CCC3)cc1F [apalutamide]', 5);

----------
Experiment: in vivo
Conditions: male, Sprague-Dawley, rat, in vivo
From the text: Single-dose and repeat-dose toxicology studies up to 13 weeks of dosing have been conducted in male Sprague Dawley (SD) rats and male Beagle dogs (repeat-dose studies only).
endpoint: NOAEL at 13 weeks (mg/kg/day)

INSERT INTO assay_data (molecule, endpoint, observed_measurement) VALUES
  ('CNC(=O)c1ccc(N2C(=S)N(c3cnc(C#N)c(C(F)(F)F)c3)C(=O)C23CCC3)cc1F [apalutamide]', 'NOAEL at 13 weeks', 100);
